# System: HCT-116 cell line
# Experiment Summary: Inhibition of cell growth, MTT tetrazolium salt assay
# Format: cell-based
# Measurement Conditions: HCT-116 cells, 0.1 μM compound

Compound: Nc1nc(Nc2ccc(C(=O)Nc3cccc(F)c3)cc2)sc1C(=O)c1c(F)cccc1F [Example G289]
Unit String: %
HCT-116 % Inhibition at 0.1 μM: 7
//
Compound: CC(=O)c1ccc(NC(=O)c2ccc(Nc3nc(N)c(C(=O)c4c(F)cccc4F)s3)cc2)cc1 [Example G310]
Unit String: %
HCT-116 % Inhibition at 0.1 μM: 14
//
Compound: Nc1nc(Nc2ccc(C(=O)NCc3ccc(C(F)(F)F)cc3)cc2)sc1C(=O)c1c(F)cccc1F [Example G261]
Unit String: %
HCT-116 % Inhibition at 0.1 μM: 26
//
Compound: Nc1nc(Nc2ccc(C(=O)Nc3ccon3)cc2)sc1C(=O)c1c(F)cccc1F [Example G213]
Unit String: %
HCT-116 % Inhibition at 0.1 μM: 16
//
Compound: Cc1ccc(NC(=O)c2ccc(Nc3nc(N)c(C(=O)c4c(F)cccc4F)s3)cc2)cc1 [Example G197]
Unit String: %
HCT-116 % Inhibition at 0.1 μM: 26
//
Compound: Nc1nc(Nc2ccc(C(=O)N3CCC(O)(c4ccccc4)CC3)cc2)sc1C(=O)c1c(F)cccc1F [Example G202]
Unit String: %
HCT-116 % Inhibition at 0.1 μM: 20
//
Compound: Nc1nc(Nc2ccc(C(=O)N[C@H](CO)Cc3ccccc3)cc2)sc1C(=O)c1c(F)cccc1F [Example G318]
Unit String: %
HCT-116 % Inhibition at 0.1 μM: 16
//
Compound: Nc1nc(Nc2ccc(C(=O)NCc3ccc(F)c(C(F)(F)F)c3)cc2)sc1C(=O)c1c(F)cccc1F [Example G302]
Unit String: %
HCT-116 % Inhibition at 0.1 μM: 17
//
Compound: Nc1nc(Nc2ccc(C(=O)NCCNc3ccc([N+](=O)[O-])cn3)cc2)sc1C(=O)c1c(F)cccc1F [Example G242]
Unit String: %
HCT-116 % Inhibition at 0.1 μM: 34
